# Protocol details: Therapeutic index, ratio of TC50 for human MAGI-CCR5 cells to IC50 for HIV-1 Bal infected in MAGI-CCR5 cells
// returns not satisfied unless TI is strictly below 50, in which case satisfied

Observe how each entry below is paired with its result.
1) CC1=C(c2nc(-c3ccc(C#N)cc3)cs2)C(c2cccnc2F)NC(=O)N1 (stereo not given): not satisfied
2) CC1=C(c2nc(-c3ccc(C#N)cc3)cs2)C(c2ccc(Br)nc2)NC(=O)N1 (stereo not given): not satisfied
3) COc1ccc(C2NC(=O)NC(C)=C2c2nc(-c3ccc(C#N)cc3)cs2)cc1O (stereo not given): not satisfied
4) CC1=C(c2nc(-c3ccc(C#N)cc3)cs2)C(c2ccc(Cl)nc2)NC(=O)N1 (stereo not given): not satisfied
5) CC1=C(c2nc(-c3ccc(C#N)cc3)cs2)C(c2cc3ccccc3n2C)NC(=O)N1 (stereo not given): not satisfied

Query compound follows.
Quick check: does CC1=C(c2nc(-c3ccc(C#N)cc3)cs2)C(c2cccnc2Cl)NC(=O)N1 (stereo not given) have TI under 50?
satisfied
